test target: T1, VEGF-D (recombinant human; source not given) (human, UniProt O43915 89-205, limits assumed)
T1 construct: also used here as target of IC50 values averaged over Source 1 and Source 2; also called vascular endothelial growth factor-D
T1 sequence: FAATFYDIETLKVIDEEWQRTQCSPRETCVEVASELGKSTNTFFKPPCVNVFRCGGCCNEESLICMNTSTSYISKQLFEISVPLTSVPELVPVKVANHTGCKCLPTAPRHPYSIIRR
assay summary: SPR (BIAcore), VEGF-D amine-coupled on CM5, purified scFv as analyte
Reported koff values are given for each entry in this list.
Report only the number, with the unit s⁻¹ understood.

Problem: Which value of koff has been reported for scFv clone CJ37 (scFv) scFv: QVQLVQSGAEVKQPGASVKVSCKASGYTFTGYNMYWVRQAPGQGLEWMGYIDPYNGDTTYNQKFKGRVTMTTDTSTSTAYMKLRSLRSDDTAVYYCARTSYYGGMDYWGRGTLVTVASGGGASGGGGSGGGGSDIVMTQTPLSSPVTLGQPASISCRSSQSLVHSNGNTYLHWLQQRPGQPPRLLIYKVSNRFSGVPDRFSGSGAGTDFTLKISRVEAEDVGVYYCSQSTHVPRTFGRGTKLEIKR in the records?
Solution: 0.00995

Problem: Which value of koff has been reported for humanized scFv 1A (scFv, also called 1A scFv; clone 1A) scFv: QVQLVQSGAEVKQPGASVKVSCKASGYTFTGYNMYWVRQAPGQGLEWMGYIDPYNGDTTYNQKFKGRVTMTTDTSTSTAYMELRSLRSDDTAVYYCARTSYYGGMDYWGRGTLVTVASGGGASGGGGSGGGGSDIVMTQTPLSSPVTLGQPASISCRSSQSLVHSNGNTYLHWLQQRPGQPPRLLIYKVSNRFSGVPDRFSGSGAGTDFTLKISRVEAEDVGVYYCSQSTHVPRTFGQGTKLEIKR in the records?
Solution: 0.0108

Problem: Which value of koff has been reported for scFv clone F61 (scFv) scFv: QVQLVQSGAEVKQPGASVKVSCKASGYTFTGYNMYWVRQAPGQGLEWMGYIDPYNGDTTYNQKFKGRVTMTTDTSTSTAYMKLRSLRSDDTAVYYCARTSYYGGMDYWGRGTLVTVASGGGASGGGGSGGGGSDIVMTQTPLSSPVTLGQPASISCRSSQSLVHSNGNTYLHWLQQRPGQPPRLLIYKVSNRFSGVPDRFSGSGAGTDFTLKISRVEAEDVGVYYCSQSTHVPRTFGQGTKLEIKR in the records?
Solution: 0.00899

---
Problem: Which value of koff has been reported for scFv clone AR74 (scFv) scFv: QVQLVQSGAEVKQPGASVKVSCKASGYTFTGYNMYWVRQAPGQGLEWMGYIDPYNGDTTYNQKFKGRVTMTTGTSTSTAYMKLRSLRSDDTAVYYCARASYYGGMDYWGRGTLVTVASGGGASGGGGSGGGGSDIVMTQTPLSSPVTLGQPASISCRSSQSLVHSNGNTYLHWLQQRPGQPPRLLIYKVSNRFSGVPDRFSGSGAGTDFTLKISRVEAEDVGVYYCSQSTHVPRTFGQGTKLEIKR in the records?
Solution: 0.00379

Problem: Which value of koff has been reported for scFv clone AW61 (scFv) scFv: QVQLVQSGAEVKQPGASVKVSCKASGYTFTGYNMYWVRQAPGQGLEWMGYIDPYNGDTTYNQKFKGRATMTTDTSTSTAYMKLRSLRSDDTAVYYCARTSYYGGMDYWGRGTLVTVASGGGASGGGGSGGGGSDIVMTQTPLSSPVTLGQPASISCRSSQSLVHSNGNTYLHWLQQRPGQPPRLLIYKVSNRFSGVPDRFSGSGAGTDFTLKISRVEAEDVGVYYCSQSTHVPRTFGQGTKLEIKR in the records?
Solution: 0.00828

Problem: Which value of koff has been reported for scFv clone A63 (scFv) scFv: QVQLVQSGAKVKQPGASVKASCKASGYTFTGYNMYWVRQAPGQGLEWMGYIDPYNGDTTYNQKFKGRVTMTTDTSTSTAYMELRSLRSDDTAVYYCARTSYYGGMDYWGRGTLVTVASGGGASGGGGSGGGGSDIVMTQTPLSSPVTLGQPASISCRSSQSLVHSNGNTYLHWLQQRPGQPPRLLIYKVSNRFSGVPDRFSGSGAGTDFTLKISRVEAEDVGVYYCSQSTHVPRTFGQGTKLEIKR in the records?
Solution: 0.0072

Problem: Which value of koff has been reported for scFv clone DI26 (scFv, also called DI126) scFv: QVQLVQSGAKVKQPGASVKASCKASGYTFTGYNMYWVRQAPGQGLEWMGYIDPYSGDTTYNQKFKGRVTMTTDTSTSTAYMELRSLRSDDTAVYYCARTSYYGGMDYWGRGTLVTVASGGGASGGGGSGGGGSDIVMTQTPLSSPVTLGQPASISCRSSQSLVHSNGNTYLHWLQQRPGQPPRLLIYKVSNRFSGVPDRFSGSGAGTDFTLKISRVEAEDVGVYYCSQSTHVPRTFGQGTKLEIKR in the records?
Solution: 0.0093
